Below, pIC50 values reported for Insulin-like growth factor 1 receptor (Homo sapiens) across several publications.
pIC50: −log10 of the molar value.
observedProperty: pIC50

compound | observedProperty | assayResult
CCc1cc(Nc2ncc(Br)c(Nc3ccc(-n4cc(OC)cn4)cc3P(C)(C)=O)n2)c(OC)cc1N1CCC(N2CCCCC2)CC1 | pIC50 | 6.90
COc1cc(N2CCC(N3CCN(C)CC3)CC2)c(C#N)cc1Nc1ncc(Br)c(Nc2ccc3nc(C4CC4)ccc3c2P(C)(C)=O)n1 | pIC50 | 6.53

a: COc1cc(Nc2ncc(Br)c(Nc3ccc4nc(C5CC5)ccc4c3P(C)(C)=O)n2)c(C)cc1N1CCOCC1
b: COc1ccc(NC(=O)/C=C/CN(C)C)cc1Nc1ncc(Cl)c(Sc2ccc3ccccc3c2)n1
Thinking about recorded pIC50 values, which is higher, a or b ? Return value: the label identifying the chosen record.
a

* * *

Below, pIC50 values reported for Insulin-like growth factor 1 receptor (Homo sapiens) across several publications.
pIC50: −log10 of the molar value.

Here are 6 compounds together with their reported answers.
chemicalString | pIC50
Cc1cc(C)cc(-c2ccnc3[nH]cc(C=O)c23)c1 | ≥ 5.00
O=C1c2cc3nc(-c4c(NC[C@@H](O)c5cccc(Cl)c5)cc[nH]c4=O)[nH]c3cc2C(=O)N1CCCO | 5.30 to 6.30
COc1cc(-c2ccccc2)nc2cc(-c3nn([C@H]4C[C@@](C)(O)C4)c(N)c3C(N)=O)c(F)cc12 | ≥ 7.00
COc1ccc2c(ccn2C[C@H](O)CNc2cc[nH]c(=O)c2-c2nc3cc4c(cc3[nH]2)C(=O)N(C2CCN(C)CC2)C4=O)c1 | 5.30 to 6.30
CN1CCC(N2C(=O)c3cc4nc(-c5c(NC[C@@H](O)COc6cccc7[nH]ccc67)ccnc5O)[nH]c4cc3C2=O)CC1 | > 6.30
C=CC(=O)Nc1cc(CN(C)CCN(C)C)cc(Nc2ncc(Cl)c(Nc3ccc4ccccc4c3)n2)c1 | 8.05

Please look at the following compound next.
Entry COc1cnn(-c2ccc(Nc3nc(Nc4cc(C)c(N5CCOCC5)c(OC)c4)ncc3Br)c(P(C)(C)=O)c2)c1 , Insulin-like growth factor 1 receptor (Homo sapiens) data, pIC50 value: 6.40

* * *

Below, IC50 values reported for Insulin-like growth factor 1 receptor (Homo sapiens) across several publications.
observedProperty: IC50 (nM)

Here are 5 compounds together with their reported answers.
compound | measuredTarget | readingUnit | IC50
COc1ccc(Oc2cccc(C3CC(N4CCCC4=O)c4cccc5c4N3CC5)c2)cc1 (centres unmarked) | Insulin-like growth factor 1 receptor (Homo sapiens) | nM | 2100
COc1cnn(-c2ccc(Nc3nc(Nc4cc(C)c(N5CCN(C6CCN(C)CC6)CC5)cc4OC)ncc3Br)c(P(C)(C)=O)c2)c1 | Insulin-like growth factor 1 receptor (Homo sapiens) | nM | 170
CCc1cc(Nc2ncc(Cl)c(Nc3ccc(-c4ccc[nH]c4=O)cc3P(C)(C)=O)n2)c(OC)cc1N1CCC(N2CCN(C)CC2)CC1 | Insulin-like growth factor 1 receptor (Homo sapiens) | nM | 427
CCc1cc(Nc2ncc(Br)c(Nc3ccc(-c4cnc(C)c(C)n4)cc3P(C)(C)=O)n2)c(OC)cc1N1CCC(N2CCN(C)CC2)CC1 | Insulin-like growth factor 1 receptor (Homo sapiens) | nM | 142
CCCc1cc(Nc2ncc(Br)c(Nc3ccc(-c4cnn(C)c4)cc3P(C)(C)=O)n2)c(OC)cc1N1CCC(N2CCN(C)CC2)CC1 | Insulin-like growth factor 1 receptor (Homo sapiens) | nM | 30.2

a: C=CC(=O)Nc1cc(Nc2ncc(Cl)c(Nc3ccc4ccccc4c3)n2)c(OC)cc1N1CCN(C)CC1
b: CCc1cc(Nc2ncc(Br)c(Nc3ccc(-c4cnc(N(C)C)nc4)cc3P(C)(C)=O)n2)c(OC)cc1N1CCC(N2CCN(C)CC2)CC1
Thinking about recorded IC50 values, which is higher, a or b ? Return value: the label identifying the chosen record.
b
(b: 186 nM, a: 28.5 nM)
